For each record, write down the corresponding PER2::LUC luminescence.
System: mPer2Luc MEF
assayOverview: PER2::LUC luminescence relative to vehicle control (fold of vehicle); higher = higher PER2::LUC reporter signal
appliedConditions: time after treatment 30 h; 10 µM
Whole data set: some 5,300 compounds, median “PER2::LUC luminescence relative to vehicle control” near 0.96, cut for the highest 2% near 1.3. Many of the other results were omitted from the sample, so the highest values are more common in it than they were.

{"columns": ["compound", "valueType", "endpointValue"],
 "data": [
  ["Cc1noc(-c2ccc(-c3ccc(CC(=O)O)cc3)cc2)c1NC(=O)OC(C)c1ccccc1Cl (configuration not stated)", "PER2::LUC luminescence", 1.12],
  ["NC[C@@H](O)c1ccc(O)c(O)c1", "PER2::LUC luminescence", 1.04],
  ["COc1ccc(-c2ccc3cc(C(=O)O)ccc3c2)cc1C12CC3CC(CC(C3)C1)C2", "PER2::LUC luminescence", 1.86],
  ["CC1NC(=O)NC1=O (configuration not stated)", "PER2::LUC luminescence", 0.877],
  ["C/C=C/C(=O)N1C(=O)OC[C@@H]1Cc1ccccc1", "PER2::LUC luminescence", 0.846]
]}

Please go through the list and note PER2::LUC luminescence for each compound.
1. Cc1occc1C(=O)n1ccnc1
2. COc1ccc2[nH]c([S+]([O-])Cc3ncc(C)c(OC)c3C)nc2n1 (configuration not stated)
3. O=C(O)/C=C/c1ccc(-c2ccc(O)c(C34CC5CC(CC(C5)C3)C4)c2)cc1
4. COc1ccc2[nH]cc(CCNC(=O)C3CC3)c2c1
5. O=C(NC[C@@H]1CN(c2ccc(N3CCOCC3=O)cc2)C(=O)O1)c1ccc(Cl)s1
6. COc1cccc(CNC(=O)Nc2nc(-c3ccncc3)cs2)c1

a:
0.971
1.01
0.721
0.938
0.975
0.601

Please go through the list and note PER2::LUC luminescence for each compound.
1. C[n+]1cc(NC(=O)c2cccc(C(=O)Nc3cc4ccccc4[n+](C)c3)n2)cc2ccccc21
2. CSc1ccccc1NC(C)=O
3. CCCCCCCCOC(=O)C=Cc1ccc(OC)cc1
4. Cc1cnc(-c2cnc(NCCNc3ccc(C#N)cn3)nc2-c2ccc(Cl)cc2Cl)[nH]1
5. COc1cc2c(c(OC)c1OC)-c1ccc(OC)c(=O)cc1[C@@H](NC=O)CC2
6. C=CC1=C(C)C2=CC3=NC(=C(CC(=O)O)C4=NC(=C(C)C4=C(O)O)C=c4[nH]c(c(C)c4CC)=CC1=N2)C(CCC(=O)O)C3C (configuration not stated)
7. COc1cc(N2CCOCC2)ccc1NC(=O)c1csc(-c2cccnc2)n1

a:
[0.604, 0.93, 1.09, 1.06, 0.84, 0.984, 1.02]

Please go through the list and note PER2::LUC luminescence for each compound.
1. CN(C)CC1CCC2=C(C1=O)C(c1ccc(Cl)c(Cl)c1)C1=C(CCC(CN(C)C)C1=O)O2 (configuration not stated)
2. COc1cc(N(C)CCN(C)C)c(N)cc1Nc1nccc(-c2cn(C)c3ccccc23)n1
3. O=C(O)c1cccc(CN2C(=O)/C(=C(\c3ccccc3)c3ccc(Cl)cc3)c3ccccc32)c1
4. Nc1ccc(NC(=O)c2ccc(C(F)(F)F)cc2)nc1

a:
1. 1.08
2. 0.54
3. 1.03
4. 0.976
